FYI, the data here is from ChEMBL document CHEMBL1201862.

Test system: HOP-62
Experiment: NCI tumour cell line growth inhibition, 48 h
Calls of active or inactive are those of the source. Rule as the data show it: active = GI50 up to about 1.1 µM and inactive = higher.
Return exactly one item of active, inactive

COC1/C=C/C(C)C(C(C)C(OC)C(C)CCC(=O)C(C)C(C/C=C/N(C)C=O)OC)OC(=O)C=CC2OC2(C)CC(OC)C(OC)C2=CC(=O)O[C@@H](C(C)C(OC)CC(OC)/C=C/C(C)C(O)C1)[C@H]2O (some centres undefined) : active
O=C(NCCNCCCNC(=O)c1cc(-c2ccccc2)nc2ccccc12)c1cccc(OCc2ccccc2)c1OCc1ccccc1 : inactive
C=C(CO)CC(O)c1cc(OC)ccc1OC (centres undefined) : inactive

# evaluate next
Req: Test call, this compound: COc1cc(/C=C/C(=O)Oc2ccc(NC(C)=O)cc2)ccc1C(=O)OCc1ccccc1
Resp: inactive

----------
Tested on: COLO 205
Assay: NCI tumour cell line growth inhibition, 48 h
Active and inactive are the calls of the source. Cut-off read from the data, not from the text of the source: active = GI50 up to about 1.1 µM and inactive = higher.
Respond using exactly one of the listed classes: active, inactive

Study these solved cases before continuing.
O=S(=O)(c1ccc(Br)cc1)n1c2ccc(Br)cc2c2nc3ccccc3nc21 : inactive
CC1(C)CC23C4COC(=O)C2CCC1C3CC4=O (stereo not drawn) : inactive
CS(=O)(=O)c1ccc(/N=C/C=C/Nc2ccc(S(C)(=O)=O)cc2)cc1 : inactive
COC(=O)C(C(=O)C(=O)Nc1ccc([N+](=O)[O-])cc1)c1nc2ccc([N+](=O)[O-])cc2nc1O (stereo not drawn) : inactive
Sc1nnc(-c2cccnc2)[nH]1 : inactive

Continue with the next molecule.
Req: Called result for CN1CCCC(C(=O)OCC(=O)C2(O)CCC3C4CCC5=CC(=O)CCC5(C)C4C(O)CC32C)C1 (stereo not drawn)
Resp: inactive

----------
System: SN12C
Assay: NCI tumour cell line growth inhibition, 48 h
Active and inactive are the calls of the source. Cut-off read from the data, not from the text of the source: active = GI50 up to about 1.1 µM and inactive = higher.
Recorded GI50, one value per entry.

Reference set (3 entries):
COC(=O)C1C2CCCN2OC1(C)CO (centres undefined) : > 100 µM (inactive)
CC(=O)c1cc(I)c(O)c2ncccc12 : 3.69 µM (inactive)
O=c1c2sc3ccccc3sc=2c(=O)c2c(Cl)c(Cl)c(Cl)c(Cl)c12 : > 100 µM (inactive)

Proceed to the following item.
Req: Please look up its GI50: CCCCCCCCCCCCC(O)C1CCC(C(O)CCCCC(O)CCCCCC2CC(CC(C)=O)C(=O)O2)O1 (centres undefined)
Resp: 4.83 µM (inactive)

----------
Tested on: SNB-19
Assay: NCI tumour cell line growth inhibition, 48 h
Calls of active or inactive are those of the source. No stated cut-off is given here; in the data, active = GI50 up to about 1.1 µM and inactive = higher.
TEST READOUT: GI50

NCCc1nc(-c2nc(C(=O)O)cs2)cs1 : > 100 µM (inactive)

Req: Hi! What's the reported GI50 for CC(=O)c1cc(I)c(O)c2ncccc12 on SNB-19?
Resp: 5.47 µM (inactive)

Req: Lookup: GI50 / SNB-19 / Cc1ccccc1C1OC1C(=O)c1ccccc1N (stereo unspecified)
Resp: 56.4 µM (inactive)

----------
# key: entry, value: GI50
Tested on: SK-MEL-28
Test: NCI tumour cell line growth inhibition, 48 h
Active and inactive are the calls of the source. No stated cut-off is given here; in the data, active = GI50 up to about 1.1 µM and inactive = higher.

// known answers, use as guide
CCCCCCCCCCCCCCCCCC[N+](C)(C)Cc1ccc(C[N+](C)(C)CCCCCCCCCCCCCCCCCC)cc1 : 18.1 µM (inactive)
O=Cc1ccc(-c2ccc(-c3ccc(CO)s3)o2)s1 : > 35.9 µM (inactive)
CCOC(=O)C1=C(Nc2ccccc2)OC/C1=N\NC(=O)Cc1ccccc1 : > 50 µM (inactive)
Cc1nc(Nc2ccc(Cl)cc2)sc1C(=O)NNC(=S)NN : 19.3 µM (inactive)

Req: Can you share its GI50? I mean this compound: O=C(N/N=C\c1cccc2ccccc12)Nc1cccc2ccccc12
Resp: 32.9 µM (inactive)

Req: Which GI50 value belongs to O=C(O)Cc1ccc2nc(COC(=O)c3ccccc3)sc2c1 ?
Resp: > 100 µM (inactive)

----------
Tested on: OVCAR-3
Assay: NCI tumour cell line growth inhibition, 48 h
Activity calls are given as the source filed them. No stated cut-off is given here; in the data, active = GI50 up to about 1.1 µM and inactive = higher.
// one of active, inactive, no free text

S=C(NCc1ccccn1)N/N=C/c1ccccn1 : active
COC(=O)CNC(=O)C(Cc1ccccc1)NC(=O)c1ccc(-c2ccc(Cl)cc2Cl)o1 (stereo unspecified) : inactive
COc1cccc2c(SCC(=O)Nc3ccccc3-c3ccccc3NC(=O)CSc3c4ccccc4nc4c(OC)cccc34)c3ccccc3nc12 : inactive
Nc1c2ccccc2nc2ccc(C(=O)Nc3ccc(S(N)(=O)=O)cc3)cc12 : inactive
CN(C)CCCCN1c2ccccc2Sc2ccc(N=[N+]=[N-])cc21 : inactive

Req: In this assay, the call recorded for O=c1c(O)c(-c2ccc(O)cc2O)oc2cc(O)cc(O)c12 was what?
Resp: inactive

Req: Kindly provide the recorded test outcome for the following molecule: CN(C)CCn1c(=O)c2ccc3c4c(nn3CCN(C)C)c3cc(O)ccc3n(c1=O)c24
Resp: active

Req: Hi, do you know how CC1CC2=Nc3ccccc3NC(c3ccccc3)C2=C(O)O1 (stereo unspecified) came out in this test?
Resp: inactive

Req: State the result this test recorded for O=C(O)C1C(Br)(c2ccccc2)C1(Br)c1ccccc1 (stereo unspecified) .
Resp: inactive

Req: Tell me the assay call for O=c1c2sc3ccccc3sc=2c(=O)c2c(Cl)c(Cl)c(Cl)c(Cl)c12 please.
Resp: inactive

Req: What is the recorded call for this molecule in the test? CCCCCCC/C=C1\CCC(CN(C)C)C1=O (stereo unspecified)
Resp: inactive

----------
Quick reference: GI50 of the listed items.
Tested on: MDA-MB-435
Assay: NCI tumour cell line growth inhibition, 48 h
Active and inactive are the calls of the source. Cut-off read from the data, not from the text of the source: active = GI50 up to about 1.1 µM and inactive = higher.

Examples with their reported GI50 follow.
CC1CC[C@@]2(OC1)OC1C[C@H]3[C@@H]4CC[C@H]5CC(OC6OC(CO)C(OC7OC(CO)C(O)C(O)C7OC7OC(CO)C(O)C(O)C7O)C(O)C6O)CCC5(C)[C@H]4CCC3(C)C1[C@@H]2C (stereo not given in full) : 2.65 µM (inactive)
Cc1ccc2[nH]c3c(c2c1)C1CCC(C(C)(C)C)CC1C1C(=O)N(c2ccc(Oc4ccccc4)cc2)C(=O)C31 (stereo not given) : 58.6 µM (inactive)
Sc1nn2c(Cc3ccccc3)nnc2s1 : > 100 µM (inactive)

Req: Look up GI50: CCCCN=C(OC1C=CCCC1)SC (stereo not given)
Resp: > 100 µM (inactive)

Req: What value of GI50 has been recorded for this entry: Cn1cc(C(=O)c2nccc3c2cnc2ccccc23)ccc1=O
Resp: > 100 µM (inactive)

----------
Test system: HOP-62
Assay: NCI tumour cell line growth inhibition, 48 h
Active and inactive are the calls of the source. Rule as the data show it: active = GI50 up to about 1.1 µM and inactive = higher.
TEST READOUT: GI50

A selection of reference data follows.
O=C(O)Cc1cccc2c(=O)c3cccc([N+](=O)[O-])c3[nH]c12 : 31.4 µM (inactive)
Cc1ccc(N/C(SCc2ccccc2)=C(\C(Cl)=C(Cl)Cl)[N+](=O)[O-])c(C)c1 : 8.13 µM (inactive)
CC(=O)OC[C@]1(O)CC[C@@]23CC1C[C@@H]2CCC1C(C)(C)CCC[C@@]13C (stereo not given in full) : 17.4 µM (inactive)
COC1=C(NC(C)=O)C(=O)c2nc3n(c2C1=O)CCC3 : 20.7 µM (inactive)

With those in mind, consider the next compound.
Req: Entry CCCCN1C(=O)C2Cc3c([nH]c4ccccc34)C(c3cccc(O)c3)N2C1=O (stereo not given) , system HOP-62: what GI50 was measured?
Resp: 18.5 µM (inactive)

----------
Test system: HT-29
Assay: NCI tumour cell line growth inhibition, 48 h
The source made the active and inactive calls. No stated cut-off is given here; in the data, active = GI50 up to about 1.1 µM and inactive = higher.
Your response should consist of one outcome taken from active, inactive

Previously resolved entries follow.
Fc1cccc(F)c1C1SCc2nc3cc(Cl)ccc3n21 (configuration not stated) : inactive
Oc1ccc(-c2csc(N/N=C3\NC/C(=C/c4ccc5c(c4)OCO5)S3)n2)cc1O : inactive
O=C(N/N=C\c1cccc2ccccc12)Nc1cccc2ccccc12 : inactive
CC(=O)Oc1c2oc3ccc(Cl)cc3c(=O)c2c(O)c2ccsc12 : inactive
CCN(CC)C(=S)N/N=C(\C)c1cccc(C)n1 : active
Cc1cccc2c1Sc1ccccc1C2NC(=O)CN(C)C (configuration not stated) : inactive
CCCc1c(C(=O)OCC)[nH]c(-c2ccc(-c3[nH]c(C(=O)OCC)c(CCC)c3C(=O)OCC)o2)c1C(=O)OCC : inactive
C[C@H](Nc1nc(N)c(N=O)c(=O)n1C)C(=O)O : inactive
Cc1ccc2c(c1)/C(=N/Nc1ccccc1[N+](=O)[O-])C(=O)N2 : inactive
O=C(CC(c1ccccc1)C1C(=O)NC(=S)NC1=O)c1ccc([N+](=O)[O-])cc1 (configuration not stated) : inactive

Req: Look up the recorded call for C=C(C)CCOC(c1ccccc1)(c1ccccc1)c1ccccc1 in this test.
Resp: inactive

Req: What did the test return for c1ccc(C2C(=P(c3ccccc3)(c3ccccc3)c3ccccc3)P=PC2[P+](c2ccccc2)(c2ccccc2)c2ccccc2)cc1.c1ccc([B-](c2ccccc2)(c2ccccc2)c2ccccc2)cc1 (configuration not stated) ?
Resp: active
